Numbers sourced from patent US8216800B2.

Test system: Bacillus subtilis NCTC 9372
ASSAY SUMMARY: Peptidase activity detection on Columbia agar containing substrate
Format: cell-based
Parameters: key: − = no fluorescence detected; e = trace of fluorescence; +/− = weak fluorescence; + = medium fluorescence; ++ = strong fluorescence; NG = No Growth
ASSAY SETUP: substrate 100 mg/l, 24 hours at 37° C., UV 360-365 nm
RECORDED ENDPOINT: fluorescence intensity

Some compounds with known fluorescence intensity results, for comparison:
C[C@H](N)C(=O)Nc1ccccc1-c1nc2cc(Cl)ccc2o1 [Substrate 4]: NG
NCCC(=O)Nc1ccccc1-c1nc2ccccc2s1 [Substrate 18]: NG
C[C@H](N)C(=O)Nc1cc2c(cc1-c1nc3ccccc3n1CCc1ccccc1)OCO2 [Substrate 16]: −
C[C@H](N)C(=O)Nc1ccccc1-c1nc2ccccc2s1 [Substrate 17]: NG
COc1cc(NC(=O)CCN)c(-c2nc3ccccc3o2)cc1OC [Substrate 11]: −
NCC(=O)Nc1ccccc1-c1nc2ccccc2o1 [Substrate 3]: +/−
C[C@H](N)C(=O)Nc1ccccc1-c1nc2ccccc2n1CCc1ccccc1 [Substrate 14]: −
NCCC(=O)Nc1ccccc1-c1nc2ccccc2o1 [Substrate 2]: NG

Field fluorescence intensity (entry C[C@H](N)C(=O)Nc1ccc(Cl)cc1-c1nc2ccccc2s1 [Substrate 19] ) reads −

fluorescence intensity reading for C[C@H](N)C(=O)Nc1ccccc1-c1nc2ccccc2o1 [Substrate 1] : −

###

Test system: Pseudomonas aeruginosa NCTC 10662
ASSAY SUMMARY: Peptidase activity detection on Columbia agar containing substrate
Format: cell-based
Parameters: key: − = no fluorescence detected; e = trace of fluorescence; +/− = weak fluorescence; + = medium fluorescence; ++ = strong fluorescence; NG = No Growth
ASSAY SETUP: Pseudomonas aeruginosa NCTC 10662; substrate 100 mg/l, 24 hours at 37° C., UV 360-365 nm
RECORDED ENDPOINT: fluorescence intensity

Consider the worked cases shown below.
COc1cc(NC(=O)CCN)c(-c2nc3ccccc3o2)cc1OC [Substrate 11]: +/−
NCCC(=O)Nc1ccccc1-c1nc2ccccc2o1 [Substrate 2]: +
NCCC(=O)Nc1ccccc1-c1nc2ccccc2s1 [Substrate 18]: ++
C[C@H](N)C(=O)Nc1ccccc1-c1nc2cc(Cl)ccc2o1 [Substrate 4]: +/−
C[C@H](N)C(=O)Nc1ccc(Cl)cc1-c1nc2ccccc2s1 [Substrate 19]: −

Measured fluorescence intensity, C[C@H](N)C(=O)Nc1ccccc1-c1nc2ccccc2s1 [Substrate 17] : +

So, NCC(=O)Nc1ccccc1-c1nc2ccccc2o1 [Substrate 3] ? Its fluorescence intensity was +/−

Quick note, fluorescence intensity for C[C@H](N)C(=O)Nc1cc2c(cc1-c1nc3ccccc3n1CCc1ccccc1)OCO2 [Substrate 16] landed at −

The compound listed as C[C@H](N)C(=O)Nc1ccccc1-c1nc2ccccc2o1 [Substrate 1] shows fluorescence intensity equal to ++

Just so you know, measured fluorescence intensity for C[C@H](N)C(=O)Nc1ccccc1-c1nc2ccccc2n1CCc1ccccc1 [Substrate 14] came out at −

###

System: Staphylococcus epidermidis NCTC 11047
ASSAY SUMMARY: Peptidase activity detection on Columbia agar containing substrate
Assay type: cell-based
Set-up: key: − = no fluorescence detected; e = trace of fluorescence; +/− = weak fluorescence; + = medium fluorescence; ++ = strong fluorescence; NG = No Growth
ASSAY SETUP: substrate 100 mg/l, 24 hours at 37° C., UV 360-365 nm
RECORDED ENDPOINT: fluorescence intensity

// worked examples, fluorescence intensity included
C[C@H](N)C(=O)Nc1ccccc1-c1nc2ccccc2o1 [Substrate 1]: −
C[C@H](N)C(=O)Nc1ccc(Cl)cc1-c1nc2ccccc2s1 [Substrate 19]: NG
NCCC(=O)Nc1ccccc1-c1nc2ccccc2o1 [Substrate 2]: −
C[C@H](N)C(=O)Nc1cc2c(cc1-c1nc3ccccc3n1CCc1ccccc1)OCO2 [Substrate 16]: −
C[C@H](N)C(=O)Nc1ccccc1-c1nc2ccccc2s1 [Substrate 17]: NG

molecule COc1cc(NC(=O)CCN)c(-c2nc3ccccc3o2)cc1OC [Substrate 11] , fluorescence intensity observed: −

Noted for NCCC(=O)Nc1ccccc1-c1nc2ccccc2s1 [Substrate 18] : its fluorescence intensity reads NG

# fluorescence intensity of C[C@H](N)C(=O)Nc1ccccc1-c1nc2ccccc2n1CCc1ccccc1 [Substrate 14] = −

fluorescence intensity for C[C@H](N)C(=O)Nc1ccccc1-c1nc2cc(Cl)ccc2o1 [Substrate 4] is −

For record NCC(=O)Nc1ccccc1-c1nc2ccccc2o1 [Substrate 3] the listed fluorescence intensity is NG
